Activity for assorted molecules
- Test system: MCF7
- assay-notes: Cytotoxicity against human MCF7 cells assessed as surviving fraction at 10 uM after 48 hrs by sulforhodamine B assay
- Format: functional
Kindly provide the numeric value in fraction only, without the unit symbol.

[
  {
    "molecule": "COc1ccc(C2C(C#N)=C(/N=C/c3ccccc3)Oc3nc(Nc4ccc(S(N)(=O)=O)cc4)sc32)cc1 (centres undefined)",
    "tgt": "MCF7",
    "reported-metric": "Activity",
    "result-value": 0.825
  },
  {
    "molecule": "COc1ccc(C2C(C#N)=C(/N=C/C=C/c3ccccc3)Oc3nc(Nc4ccc(S(N)(=O)=O)cc4)sc32)cc1 (centres undefined)",
    "tgt": "MCF7",
    "reported-metric": "Activity",
    "result-value": 0.828
  },
  {
    "molecule": "COc1ccc(C2C(C#N)=C(/N=C/c3ccc(F)cc3)Oc3nc(Nc4ccc(S(N)(=O)=O)cc4)sc32)cc1 (centres undefined)",
    "tgt": "MCF7",
    "reported-metric": "Activity",
    "result-value": 0.845
  }
]

Kindly review the next molecule as well.
q: Requested read-out Activity, target or system MCF7, entry COc1ccc(C2C(C#N)=C(/N=C/c3cccc(Br)c3)Oc3nc(Nc4ccc(S(N)(=O)=O)cc4)sc32)cc1 (centres undefined)
a: 0.435

###

- Tested on: MCF7
- assay-notes: Cytotoxicity against human MCF7 cells after 48 hrs by sulforhodamine B assay
- Assay type: functional, cell-based
- experimental-conditions: MCF7, 48 h
reported-metric: pIC50
Conceptually, pIC50 converts a concentration in mol/L into minus its log10.

Some molecules with recorded pIC50:
[
  {
    "molecule": "COc1ccc(C2C(C#N)=C(/N=C/c3ccc(Cl)cc3)Oc3nc(Nc4ccc(S(N)(=O)=O)cc4)sc32)cc1 (stereo not drawn)",
    "reported-metric": "pIC50",
    "result-value": 5.02
  },
  {
    "molecule": "COc1ccc(C2C(C#N)=C(/N=C/c3ccc(F)cc3)Oc3nc(Nc4ccc(S(N)(=O)=O)cc4)sc32)cc1 (stereo not drawn)",
    "reported-metric": "pIC50",
    "result-value": 4.54
  },
  {
    "molecule": "COc1ccc(C2C(C#N)=C(/N=C/c3ccccc3Cl)Oc3nc(Nc4ccc(S(N)(=O)=O)cc4)sc32)cc1 (stereo not drawn)",
    "reported-metric": "pIC50",
    "result-value": 4.99
  },
  {
    "molecule": "COc1ccc(C2C(C#N)=C(/N=C/c3ccc(N(C)C)cc3)Oc3nc(Nc4ccc(S(N)(=O)=O)cc4)sc32)cc1 (stereo not drawn)",
    "reported-metric": "pIC50",
    "result-value": 4.44
  },
  {
    "molecule": "COc1ccc(C2C(C#N)=C(/N=C/c3ccc(O)cc3)Oc3nc(Nc4ccc(S(N)(=O)=O)cc4)sc32)cc1 (stereo not drawn)",
    "reported-metric": "pIC50",
    "result-value": 4.46
  },
  {
    "molecule": "COc1ccc(C2C(C#N)=C(/N=C/c3ccccc3)Oc3nc(Nc4ccc(S(N)(=O)=O)cc4)sc32)cc1 (stereo not drawn)",
    "reported-metric": "pIC50",
    "result-value": 4.47
  }
]

q: Returns the measured pIC50 for the input molecule. Input: COc1ccc(C2C(C#N)=C(/N=C/c3ccc([N+](=O)[O-])cc3)Oc3nc(Nc4ccc(S(N)(=O)=O)cc4)sc32)cc1 (stereo not drawn)
a: 5.01

q: Returns the measured pIC50 for the input molecule. Input: COc1ccc(C2C(C#N)=C(N)Oc3nc(Nc4ccc(S(N)(=O)=O)cc4)sc32)cc1 (stereo not drawn)
a: 4.56

###

- Test system: MCF7
- assay-notes: Cytotoxicity against human MCF7 cells assessed as surviving fraction at 100 uM after 48 hrs by sulforhodamine B assay
- Type: functional
reported-metric: Activity (%)
Kindly provide the numeric value in % only, without the unit symbol.

# annotated cases, reported Activity shown
[
  {
    "compound": "COc1ccc(C2C(C#N)=C(/N=C/c3ccccc3)Oc3nc(Nc4ccc(S(N)(=O)=O)cc4)sc32)cc1 (stereo not drawn)",
    "reported-metric": "Activity",
    "result-units": "%",
    "result-value": 27.1
  },
  {
    "compound": "COc1ccc(C2C(C#N)=C(/N=C/c3ccc4c(c3)OCO4)Oc3nc(Nc4ccc(S(N)(=O)=O)cc4)sc32)cc1 (stereo not drawn)",
    "reported-metric": "Activity",
    "result-units": "%",
    "result-value": 39.3
  },
  {
    "compound": "COc1ccc(C2C(C#N)=C(/N=C/c3ccc(N(C)C)cc3)Oc3nc(Nc4ccc(S(N)(=O)=O)cc4)sc32)cc1 (stereo not drawn)",
    "reported-metric": "Activity",
    "result-units": "%",
    "result-value": 37.8
  },
  {
    "compound": "COc1ccc(C2C(C#N)=C(N)Oc3nc(Nc4ccc(S(N)(=O)=O)cc4)sc32)cc1 (stereo not drawn)",
    "reported-metric": "Activity",
    "result-units": "%",
    "result-value": 35
  },
  {
    "compound": "COc1ccc(C2C(C#N)=C(/N=C/c3ccc(Cl)cc3Cl)Oc3nc(Nc4ccc(S(N)(=O)=O)cc4)sc32)cc1 (stereo not drawn)",
    "reported-metric": "Activity",
    "result-units": "%",
    "result-value": 39.1
  }
]

q: Look up Activity for this compound: COc1ccc(C2C(C#N)=C(/N=C/c3ccc(Cl)cc3)Oc3nc(Nc4ccc(S(N)(=O)=O)cc4)sc32)cc1 (stereo not drawn)
a: 29

q: Fill in: Activity of COc1ccc(C2C(C#N)=C(/N=C/C=C/c3ccccc3)Oc3nc(Nc4ccc(S(N)(=O)=O)cc4)sc32)cc1 (stereo not drawn) is ___
a: 37

q: Given the compound COc1ccc(C2C(C#N)=C(/N=C/c3ccccc3Cl)Oc3nc(Nc4ccc(S(N)(=O)=O)cc4)sc32)cc1 (stereo not drawn) , what is its reported Activity?
a: 46

###

- Tested on: MCF7
- assay-notes: Cytotoxicity against human MCF7 cells after 48 hrs by sulforhodamine B assay
- Type: functional, cell-based
- experimental-conditions: MCF7, 48 h
Listed below: IC50 values for each entry.
Give just the number in µM; leave the unit off.

See these solved cases before continuing.
[
  {
    "compound": "COc1ccc(C2C(C#N)=C(/N=C/c3ccc(Cl)cc3Cl)Oc3nc(Nc4ccc(S(N)(=O)=O)cc4)sc32)cc1 (centres undefined)",
    "IC50 [µM]": 23.5
  },
  {
    "compound": "COc1ccc(C2C(C#N)=C(/N=C/c3ccc4c(c3)OCO4)Oc3nc(Nc4ccc(S(N)(=O)=O)cc4)sc32)cc1 (centres undefined)",
    "IC50 [µM]": 38.2
  },
  {
    "compound": "COc1ccc(C2C(C#N)=C(/N=C/C=C/c3ccccc3)Oc3nc(Nc4ccc(S(N)(=O)=O)cc4)sc32)cc1 (centres undefined)",
    "IC50 [µM]": 28.9
  }
]

Turning to the following compound.
q: Please look up its IC50: COc1ccc(C2C(C#N)=C(/N=C/c3cccc(Br)c3)Oc3nc(Nc4ccc(S(N)(=O)=O)cc4)sc32)cc1 (centres undefined)
a: 9.39

###

- Tested on: MCF7
- assay-notes: Cytotoxicity against human MCF7 cells assessed as surviving fraction at 50 uM after 48 hrs by sulforhodamine B assay
- Type: functional
- Set-up: unit not given here
Entries annotated with measured Activity
// return just the number, without any unit appended

Known Activity results, listed for orientation:
[
  {
    "molecule": "COc1ccc(C2C(C#N)=C(/N=C/c3ccc(F)cc3)Oc3nc(Nc4ccc(S(N)(=O)=O)cc4)sc32)cc1 (configuration not stated)",
    "tgt": "MCF7",
    "Activity": 0.38
  },
  {
    "molecule": "COc1ccc(C2C(C#N)=C(/N=C/c3ccc(N(C)C)cc3)Oc3nc(Nc4ccc(S(N)(=O)=O)cc4)sc32)cc1 (configuration not stated)",
    "tgt": "MCF7",
    "Activity": 0.347
  },
  {
    "molecule": "COc1ccc(C2C(C#N)=C(N)Oc3nc(Nc4ccc(S(N)(=O)=O)cc4)sc32)cc1 (configuration not stated)",
    "tgt": "MCF7",
    "Activity": 0.331
  }
]

q: Fill blank: measured Activity of the molecule COc1ccc(C2C(C#N)=C(/N=C/c3ccccc3)Oc3nc(Nc4ccc(S(N)(=O)=O)cc4)sc32)cc1 (configuration not stated) is ____.
a: 0.307

q: Activity lookup needed for COc1ccc(C2C(C#N)=C(/N=C/c3ccc(Cl)cc3Cl)Oc3nc(Nc4ccc(S(N)(=O)=O)cc4)sc32)cc1 (configuration not stated) , thanks.
a: 0.377

q: Quick one: Activity of COc1ccc(C2C(C#N)=C(/N=C/c3ccccc3Cl)Oc3nc(Nc4ccc(S(N)(=O)=O)cc4)sc32)cc1 (configuration not stated) ?
a: 0.36

q: Could you share which Activity value was measured for COc1ccc(C2C(C#N)=C(/N=C/c3ccc(Cl)cc3)Oc3nc(Nc4ccc(S(N)(=O)=O)cc4)sc32)cc1 (configuration not stated) ?
a: 0.355

q: Fill blank: measured Activity of the molecule COc1ccc(C2C(C#N)=C(/N=C/c3ccc([N+](=O)[O-])cc3)Oc3nc(Nc4ccc(S(N)(=O)=O)cc4)sc32)cc1 (configuration not stated) is ____.
a: 0.313

q: Tell me the measured Activity of COc1ccc(C2C(C#N)=C(/N=C/c3cccc(Br)c3)Oc3nc(Nc4ccc(S(N)(=O)=O)cc4)sc32)cc1 (configuration not stated) , please.
a: 0.371

q: Bench note: what Activity did COc1ccc(C2C(C#N)=C(/N=C/C=C/c3ccccc3)Oc3nc(Nc4ccc(S(N)(=O)=O)cc4)sc32)cc1 (configuration not stated) show?
a: 0.242

q: // returns reported Activity for input COc1ccc(C2C(C#N)=C(/N=C/c3ccc(O)cc3)Oc3nc(Nc4ccc(S(N)(=O)=O)cc4)sc32)cc1 (configuration not stated)
a: 0.37

q: Bench note: what Activity did COc1ccc(C2C(C#N)=C(/N=C/c3ccc4c(c3)OCO4)Oc3nc(Nc4ccc(S(N)(=O)=O)cc4)sc32)cc1 (configuration not stated) show?
a: 0.419
